Measured values drawn from ChEMBL document CHEMBL4665642 for this set.

- System: A-375
- experimentSummary: Cytotoxicity against human A-375 cells assessed as reduction in cell viability by MTT assay
- Assay type: functional, cell-based
Quick reference: IC50 of the listed items.

{"molecularString": "O=S(=O)(NCCNc1nccc(-c2c(-c3cccc(F)c3)nc3sccn23)n1)c1ccc(Br)cc1", "readoutUnits": "µM", "IC50": 13.5}
{"molecularString": "CNC(=O)c1cc(Oc2ccc(NC(=O)Nc3ccc(Cl)c(C(F)(F)F)c3)cc2)ccn1", "readoutUnits": "µM", "IC50": 7.88}
{"molecularString": "O=C(NCCCNc1nccc(-c2c(-c3cccc(F)c3)nc3sccn23)n1)c1ccc(Cl)cc1", "readoutUnits": "µM", "IC50": 13.7}
